The values you see were collected from ChEMBL document CHEMBL1158870.

- Test system: HCT-15
- Procedure Summary: Cytotoxicity against human HCT15 cells by SRB assay
- Assay type: functional
# key: entry, value: GI50
Give the number; µM is assumed, so skip it.

Use these answered entries as a reference point.
Smiles String: COC(C)(C)[C@@H](O)[C@H](O)C[C@H](C)C1=C2CC[C@@H]3[C@@]4(C)CC[C@@H](OC(C)=O)C(C)(C)[C@@H]4C[C@@H](O[C@@H]4O[C@H](COC(C)=O)[C@@H](O)[C@H](O)[C@H]4O)[C@@]3(C)[C@]2(C)CC1
Target Of Assay: HCT-15
GI50 / µM: 11
--
Smiles String: CC(=O)OC[C@H]1O[C@@H](O[C@@H]2C[C@H]3C(C)(C)[C@H](OC(C)=O)CC[C@]3(C)[C@H]3CCC4=C([C@@H](C)C[C@@H](O)[C@H](O)C(C)(C)O)CC[C@@]4(C)[C@@]32C)[C@H](O)[C@@H](O)[C@@H]1O
Target Of Assay: HCT-15
GI50 / µM: 17

Item under review: `C=C1[C@@H](O)C[C@@]23CC[C@@H]4[C@@]5(C)CC[C@@H](OC(C)=O)C(C)(C)[C@@H]5C[C@@H](O[C@@H]5O[C@H](COC(C)=O)[C@@H](O)[C@H](O)[C@H]5O)[C@@]4(C)C2=CC[C@H]3[C@H]1C` . Reported GI50?
11.5

Item under review: `CC(=O)OC[C@H]1O[C@@H](O[C@@H]2C[C@H]3C(C)(C)[C@H](OC(C)=O)CC[C@]3(C)[C@H]3CC[C@@]45C[C@H](O)C[C@H](C)[C@@H]4CC=C5[C@@]32C)[C@H](O)[C@@H](O)[C@@H]1O` . Reported GI50?
8.91

Item under review: `C=C(C)[C@@H](O)[C@H](O)C[C@H](C)[C@@H]1CC[C@]2(C)C1=CC[C@@H]1[C@@]3(C)CC[C@@H](OC(C)=O)C(C)(C)[C@@H]3C[C@@H](O[C@@H]3O[C@H](COC(C)=O)[C@@H](O)[C@H](O)[C@H]3O)[C@]12C` . Reported GI50?
2.95

Item under review: `COC(C)(C)[C@@H](O)[C@H]1C[C@H](C)[C@@]2(CC[C@]3(C)[C@@H]2CC[C@@H]2[C@@]4(C)CC[C@@H](OC(C)=O)C(C)(C)[C@@H]4C[C@@H](O[C@@H]4O[C@H](COC(C)=O)[C@@H](O)[C@H](O)[C@H]4O)[C@]23C)O1` . Reported GI50?
2.4

Item under review: `CC(=O)OC[C@H]1O[C@@H](O[C@@H]2C[C@H]3C(C)(C)[C@H](OC(C)=O)CC[C@]3(C)[C@H]3CC[C@@H]4[C@]5(CC[C@@]4(C)[C@@]32C)O[C@@H]([C@H](O)C(C)(C)O)C[C@@H]5C)[C@H](O)[C@@H](O)[C@@H]1O` . Reported GI50?
2.19
